Please provide measured koff for the entries that follow.
Molecular target: human IL-6 (human, UniProt P05231 30-212)
Sequence (P05231 30-212 limits assumed): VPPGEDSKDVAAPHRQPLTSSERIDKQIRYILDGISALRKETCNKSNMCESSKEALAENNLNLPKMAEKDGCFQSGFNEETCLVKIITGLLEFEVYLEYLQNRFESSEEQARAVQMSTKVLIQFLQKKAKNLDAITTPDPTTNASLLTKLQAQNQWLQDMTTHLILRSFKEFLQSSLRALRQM
Experiment: SPR Biacore, supernatant, Protein A capture, 37 C
Unit s⁻¹ implied. Number only.

Fill in the blank: the reported koff of Anti-IL-6 antibody, heavy chain S35H, G66D, Q99G / light chain WT (antibody, IgG1, V domains shown, IgG1; variable domains only) VH: EVQLVESGGGLVQPGGSLRLSCAASGFTFSPFAMHWVRQAPGKGLEWVAKISPGGSWTYYSDTVTDRFTFSLDTSKSTAYLQMNSLRAEDTAVYYCARGLWGYYALDIWGQGTLVTVSS VL: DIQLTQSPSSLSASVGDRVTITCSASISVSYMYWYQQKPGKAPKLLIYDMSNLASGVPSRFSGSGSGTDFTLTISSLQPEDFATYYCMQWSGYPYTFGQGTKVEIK is ____.
0.0033

Look up koff for this binder: Anti-IL-6 antibody, heavy chain S35H, G66D, L100I / light chain WT (antibody, IgG1, V domains shown, IgG1; variable domains only) VH: EVQLVESGGGLVQPGGSLRLSCAASGFTFSPFAMHWVRQAPGKGLEWVAKISPGGSWTYYSDTVTDRFTFSLDTSKSTAYLQMNSLRAEDTAVYYCARQIWGYYALDIWGQGTLVTVSS VL: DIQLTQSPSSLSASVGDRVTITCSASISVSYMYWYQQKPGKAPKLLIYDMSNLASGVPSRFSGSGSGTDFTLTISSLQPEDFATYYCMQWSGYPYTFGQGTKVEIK
0.000644

If you can, please state the reported koff value of Anti-IL-6 antibody, heavy chain S35H, G66D, L100R / light chain WT (antibody, IgG1, V domains shown, IgG1; variable domains only) VH: EVQLVESGGGLVQPGGSLRLSCAASGFTFSPFAMHWVRQAPGKGLEWVAKISPGGSWTYYSDTVTDRFTFSLDTSKSTAYLQMNSLRAEDTAVYYCARQRWGYYALDIWGQGTLVTVSS VL: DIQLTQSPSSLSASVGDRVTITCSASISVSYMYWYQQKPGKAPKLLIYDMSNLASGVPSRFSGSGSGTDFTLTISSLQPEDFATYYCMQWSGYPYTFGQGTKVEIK .
0.000957

Could you tell me which koff is on file for Anti-IL-6 antibody, heavy chain S35H, G66D / light chain WT (antibody, IgG1, V domains shown, IgG1; variable domains only) VH: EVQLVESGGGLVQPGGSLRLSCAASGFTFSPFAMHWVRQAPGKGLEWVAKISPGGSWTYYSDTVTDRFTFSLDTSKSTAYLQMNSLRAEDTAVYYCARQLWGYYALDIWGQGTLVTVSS VL: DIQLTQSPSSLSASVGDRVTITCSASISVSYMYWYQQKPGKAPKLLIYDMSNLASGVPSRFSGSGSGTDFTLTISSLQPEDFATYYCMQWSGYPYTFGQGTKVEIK ?
0.000548

Any idea what its koff is? The binder is Anti-IL-6 antibody, heavy chain S35H, G66D, Q99R / light chain WT (antibody, IgG1, V domains shown, IgG1; variable domains only) VH: EVQLVESGGGLVQPGGSLRLSCAASGFTFSPFAMHWVRQAPGKGLEWVAKISPGGSWTYYSDTVTDRFTFSLDTSKSTAYLQMNSLRAEDTAVYYCARRLWGYYALDIWGQGTLVTVSS VL: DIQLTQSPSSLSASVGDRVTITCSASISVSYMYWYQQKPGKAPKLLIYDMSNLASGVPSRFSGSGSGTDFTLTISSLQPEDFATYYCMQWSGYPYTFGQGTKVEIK
0.00161

I would be grateful if you could share the reported koff for Anti-IL-6 antibody, heavy chain S35H, G66D, Q99E / light chain WT (antibody, IgG1, V domains shown, IgG1; variable domains only) VH: EVQLVESGGGLVQPGGSLRLSCAASGFTFSPFAMHWVRQAPGKGLEWVAKISPGGSWTYYSDTVTDRFTFSLDTSKSTAYLQMNSLRAEDTAVYYCARELWGYYALDIWGQGTLVTVSS VL: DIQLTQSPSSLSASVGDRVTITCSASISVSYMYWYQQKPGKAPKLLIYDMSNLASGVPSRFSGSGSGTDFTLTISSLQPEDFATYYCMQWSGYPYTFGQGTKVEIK .
0.00193

Find the recorded koff belonging to Anti-IL-6 antibody, heavy chain S35H, G66D, L100D / light chain M32L, M50D, N52S, M88Q (antibody, IgG1, V domains shown, IgG1; variable domains only; VL is variant III) VH: EVQLVESGGGLVQPGGSLRLSCAASGFTFSPFAMHWVRQAPGKGLEWVAKISPGGSWTYYSDTVTDRFTFSLDTSKSTAYLQMNSLRAEDTAVYYCARQDWGYYALDIWGQGTLVTVSS VL: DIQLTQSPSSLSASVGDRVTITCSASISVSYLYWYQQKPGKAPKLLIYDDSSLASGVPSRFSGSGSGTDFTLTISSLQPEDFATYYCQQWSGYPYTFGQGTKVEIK and report it.
0.00202

Given the binder Anti-IL-6 antibody, heavy chain S35H, G66D, Q99V / light chain M32L, M50D, N52S, M88Q (antibody, IgG1, V domains shown, IgG1; variable domains only; VL is variant III) VH: EVQLVESGGGLVQPGGSLRLSCAASGFTFSPFAMHWVRQAPGKGLEWVAKISPGGSWTYYSDTVTDRFTFSLDTSKSTAYLQMNSLRAEDTAVYYCARVLWGYYALDIWGQGTLVTVSS VL: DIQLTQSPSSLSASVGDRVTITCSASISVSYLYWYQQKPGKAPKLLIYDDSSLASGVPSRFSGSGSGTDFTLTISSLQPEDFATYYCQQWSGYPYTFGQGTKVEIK , what is its reported koff?
0.0014

If you can, please state the reported koff value of Anti-IL-6 antibody, heavy chain S35H, G66D, L100K / light chain WT (antibody, IgG1, V domains shown, IgG1; variable domains only) VH: EVQLVESGGGLVQPGGSLRLSCAASGFTFSPFAMHWVRQAPGKGLEWVAKISPGGSWTYYSDTVTDRFTFSLDTSKSTAYLQMNSLRAEDTAVYYCARQKWGYYALDIWGQGTLVTVSS VL: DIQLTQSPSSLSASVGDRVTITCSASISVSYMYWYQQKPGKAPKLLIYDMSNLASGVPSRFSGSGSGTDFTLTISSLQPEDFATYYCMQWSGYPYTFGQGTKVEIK .
0.00106

Need koff, item Anti-IL-6 antibody, heavy chain S35H, G66D, Q99K / light chain M32L, M50D, N52S, M88Q (antibody, IgG1, V domains shown, IgG1; variable domains only; VL is variant III) VH: EVQLVESGGGLVQPGGSLRLSCAASGFTFSPFAMHWVRQAPGKGLEWVAKISPGGSWTYYSDTVTDRFTFSLDTSKSTAYLQMNSLRAEDTAVYYCARKLWGYYALDIWGQGTLVTVSS VL: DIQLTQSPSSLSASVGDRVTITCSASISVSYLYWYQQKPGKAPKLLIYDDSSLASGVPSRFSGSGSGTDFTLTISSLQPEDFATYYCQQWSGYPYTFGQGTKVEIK
0.00146
